Target: His-GST-PARP7 (Homo sapiens (Human), UniProt Q7Z3E1)
Sequence (Q7Z3E1 whole entry): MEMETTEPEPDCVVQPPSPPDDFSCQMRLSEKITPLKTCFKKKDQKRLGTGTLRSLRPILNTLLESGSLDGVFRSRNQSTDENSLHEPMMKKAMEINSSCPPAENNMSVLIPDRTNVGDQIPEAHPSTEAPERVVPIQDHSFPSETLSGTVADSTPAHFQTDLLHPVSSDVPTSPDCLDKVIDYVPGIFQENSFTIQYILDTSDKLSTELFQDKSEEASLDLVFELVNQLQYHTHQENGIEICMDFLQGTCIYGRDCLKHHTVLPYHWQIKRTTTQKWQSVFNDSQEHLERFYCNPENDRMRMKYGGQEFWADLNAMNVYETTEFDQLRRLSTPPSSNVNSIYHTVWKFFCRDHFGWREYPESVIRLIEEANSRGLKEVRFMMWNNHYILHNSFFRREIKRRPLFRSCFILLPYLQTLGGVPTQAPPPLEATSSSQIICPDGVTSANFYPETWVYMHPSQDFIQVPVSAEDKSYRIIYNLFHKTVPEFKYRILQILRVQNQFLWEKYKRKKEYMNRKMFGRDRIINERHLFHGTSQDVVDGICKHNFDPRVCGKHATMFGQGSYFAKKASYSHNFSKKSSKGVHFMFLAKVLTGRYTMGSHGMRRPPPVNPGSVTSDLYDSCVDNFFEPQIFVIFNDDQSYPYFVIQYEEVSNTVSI
Assay: PARP7 biochemical assay
Settings: read-out: PARP7 IC50
pIC50: −log10 of the molar value.
readout.name: pIC50

# compound, subject.of.test, pIC50
measured = [
    ("C#CC(C)Oc1ccc2c(=O)[nH]nc(Cc3ccc(F)c(C(=O)N4CCN(c5ccc(C#N)cn5)CC4)c3)c2c1 (stereo not shown)", "His-GST-PARP7 (Homo sapiens (Human), UniProt Q7Z3E1)", "> 7.30"),
    ("CC#Cc1ccc2c(=O)[nH]nc(Cc3ccc(F)c(C(=O)N4CC5CCC(C4)N5c4ccc(C#N)cn4)c3)c2c1", "His-GST-PARP7 (Homo sapiens (Human), UniProt Q7Z3E1)", "> 7.30"),
    ("O=c1[nH]nc(Cc2ccc3c(N4CCN(c5ncc(C(F)(F)F)cn5)CC4)noc3c2)c2cc(OC3CCC3)ccc12", "His-GST-PARP7 (Homo sapiens (Human), UniProt Q7Z3E1)", "< 5.70"),
]

// next item, pIC50 requested
Check the records and state pIC50 for CN(C(=O)C1CCO1)C1CN(C(=O)c2cc(Cc3n[nH]c(=O)c4ccc(OC5CCC5)cc34)ccc2F)C1 (stereo not shown)
5.70 to 6.30

---

Biological target: PARP4bc (Homo sapiens, UniProt Q9UKK3)
Sequence (Q9UKK3 whole entry, looked up): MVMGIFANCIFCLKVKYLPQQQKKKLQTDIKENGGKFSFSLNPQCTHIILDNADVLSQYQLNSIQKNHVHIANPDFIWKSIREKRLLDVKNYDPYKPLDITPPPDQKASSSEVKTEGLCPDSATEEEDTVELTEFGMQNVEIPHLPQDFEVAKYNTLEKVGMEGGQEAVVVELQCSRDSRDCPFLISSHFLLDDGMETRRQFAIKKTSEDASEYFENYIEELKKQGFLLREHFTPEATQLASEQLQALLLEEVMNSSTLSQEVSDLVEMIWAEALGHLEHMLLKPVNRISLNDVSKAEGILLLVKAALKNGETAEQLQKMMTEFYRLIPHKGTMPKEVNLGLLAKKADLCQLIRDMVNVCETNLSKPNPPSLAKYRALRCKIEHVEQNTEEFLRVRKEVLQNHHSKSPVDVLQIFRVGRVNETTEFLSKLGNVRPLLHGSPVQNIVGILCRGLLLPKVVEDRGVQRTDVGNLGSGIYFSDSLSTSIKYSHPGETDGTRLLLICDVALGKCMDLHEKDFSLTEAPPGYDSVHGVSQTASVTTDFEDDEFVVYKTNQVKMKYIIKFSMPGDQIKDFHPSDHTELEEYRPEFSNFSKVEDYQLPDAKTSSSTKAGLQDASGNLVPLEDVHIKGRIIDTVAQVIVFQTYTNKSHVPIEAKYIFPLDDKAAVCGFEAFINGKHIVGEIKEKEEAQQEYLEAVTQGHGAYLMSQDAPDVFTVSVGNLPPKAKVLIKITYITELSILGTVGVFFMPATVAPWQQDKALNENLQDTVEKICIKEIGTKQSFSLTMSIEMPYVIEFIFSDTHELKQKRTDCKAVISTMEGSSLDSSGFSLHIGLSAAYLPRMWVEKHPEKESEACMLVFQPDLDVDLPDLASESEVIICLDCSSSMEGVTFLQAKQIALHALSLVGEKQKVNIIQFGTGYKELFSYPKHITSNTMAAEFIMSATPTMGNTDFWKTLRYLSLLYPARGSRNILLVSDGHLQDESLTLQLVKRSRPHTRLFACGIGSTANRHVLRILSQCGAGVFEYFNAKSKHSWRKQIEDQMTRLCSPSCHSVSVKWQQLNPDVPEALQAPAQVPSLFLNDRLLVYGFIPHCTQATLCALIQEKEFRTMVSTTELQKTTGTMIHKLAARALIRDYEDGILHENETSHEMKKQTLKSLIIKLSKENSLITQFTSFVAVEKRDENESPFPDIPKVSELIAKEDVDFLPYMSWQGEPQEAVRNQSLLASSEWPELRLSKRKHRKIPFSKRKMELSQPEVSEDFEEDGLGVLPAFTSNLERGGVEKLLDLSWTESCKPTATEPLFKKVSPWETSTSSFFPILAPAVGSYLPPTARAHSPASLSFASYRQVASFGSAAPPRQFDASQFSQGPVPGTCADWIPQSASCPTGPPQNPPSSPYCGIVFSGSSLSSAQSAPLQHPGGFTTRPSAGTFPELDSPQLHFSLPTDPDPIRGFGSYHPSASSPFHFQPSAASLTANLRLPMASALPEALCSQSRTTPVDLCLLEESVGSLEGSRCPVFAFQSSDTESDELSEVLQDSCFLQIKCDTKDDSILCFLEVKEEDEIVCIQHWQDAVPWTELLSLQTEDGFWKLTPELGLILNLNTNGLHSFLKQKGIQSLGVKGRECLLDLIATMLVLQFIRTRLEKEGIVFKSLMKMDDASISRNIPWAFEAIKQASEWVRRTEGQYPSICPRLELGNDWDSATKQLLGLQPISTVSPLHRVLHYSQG
pIC50: −log10 of the molar value.
readout.name: pIC50

Check the records and state pIC50 for `CC#Cc1ccc2c(=O)[nH]nc(Cc3ccc(F)c(C(=O)N4CCN(c5ccc(C#N)cn5)CC4)c3)c2c1`
< 5.52

---

Target: His-GST-PARP7 (Homo sapiens (Human))
Test: PARP7 biochemical assay
Conditions: read-out: PARP7 IC50
readout.name: IC50

# chem.smiles, IC50
measured = [
    ("CC#Cc1ccc2c(=O)[nH]nc(Cc3ccc(F)c(C(=O)NCc4nnc(C(F)(F)F)o4)c3)c2c1", "> 2 µM"),
]

Tell me its IC50 on His-GST-PARP7 (Homo sapiens (Human)): `CNc1ccc2c(=O)[nH]nc(Cc3ccc(F)c(C(=O)N4CCN(c5ccc(C#N)cn5)CC4)c3)c2c1`
< 0.05 µM

Tell me its IC50 on His-GST-PARP7 (Homo sapiens (Human)): `N#Cc1ccc(N2CCN(C(=O)c3cc(Cc4n[nH]c(=O)c5c(C(F)(F)F)cc(OC6CCC6)cc45)ccc3F)CC2)nc1`
< 0.05 µM

Tell me its IC50 on His-GST-PARP7 (Homo sapiens (Human)): `CC#Cc1ccc2c(=O)[nH]nc(Cc3ccc(F)c(C(=O)N(C)CCN(CC)c4ccc(C#N)cn4)c3)c2c1`
< 0.05 µM

---

// GI50 lookup, one value per entry
Tested on: NCI-H1373 (human lung adenocarcinoma) cells
Experiment: Cell proliferation assay (CellTiter-Glo), NCI-H1373
Type: cell-based
Settings: Homo sapiens, NCI-H1373, 144 h; 6 days, CellTiter-Glo; read-out: NCI-H1373 GI50

# compound, experimental.result
rows = [
    ("CC#Cc1ccc2c(=O)[nH]nc(Cc3ccc(F)c(C(=O)N4CCN(c5ccc(C#N)cn5)CC(F)(F)C4)c3)c2c1", "100 to 1000 nM"),
    ("CC#Cc1ccc2c(=O)[nH]nc(Cc3ccc(F)c(C(=O)N4CC5(C4)CN(c4ccc(C#N)cn4)C5)c3)c2c1", "1000 to 5000 nM"),
]

Check the records and state GI50 for `O=C(c1cc(Cc2n[nH]c(=O)c3ccc(OC4CCC4)cc23)ccc1F)N1CCN(c2ncc(C(F)F)cn2)CC1`
< 100 nM

Check the records and state GI50 for `COc1nc(N2CCN(C(=O)c3cc(Cc4n[nH]c(=O)c5ccc(OC6CCC6)cc45)ccc3F)CC2)ccc1C#N`
100 to 1000 nM

Check the records and state GI50 for `O=C(c1cc(Cc2n[nH]c(=O)c3ccc(OC4CCC4)cc23)ccc1F)N1CCN(c2cnc(C(F)(F)F)cn2)CC1`
< 100 nM

Check the records and state GI50 for `O=C(c1cc(Cc2n[nH]c(=O)c3ccc(OC4CCC4)cc23)ccc1F)N1CCCN(C(=O)C2CC2)CC1`
> 5000 nM

Check the records and state GI50 for `N#Cc1ccc(N2CCCN(C(=O)c3cc(Cc4n[nH]c(=O)c5ccc(OC6CCC6)cc45)ccc3F)CC2)nc1`
< 100 nM

Check the records and state GI50 for `O=C(c1cc(Cc2n[nH]c(=O)c3ccc(OC4CCC4)cc23)ccc1F)N1CCN(C(=O)C2CC2)CC(F)(F)C1`
1000 to 5000 nM

Check the records and state GI50 for `N#Cc1cnc(N2CCN(C(=O)c3cc(Cc4n[nH]c(=O)c5ccc(OC6CCC6)cc45)ccc3F)CC2)nc1`
< 100 nM

---

Test system: HARA (human lung squamous cell carcinoma) cells
Experiment: Cell proliferation assay (CellTiter-Glo), HARA
Format: cell-based
Details: Homo sapiens, 144 h; 6 days, CellTiter-Glo; read-out: HARA GI50
// GI50 lookup, one value per entry

Reference set (5 entries):
# chem.smiles, experimental.result
measured = [
    ("CC#Cc1ccc2c(=O)[nH]nc(Cc3ccc(F)c(C(=O)N4CCN(c5ccc(C#N)cn5)CC4)c3)c2c1C", "1 to 5 µM"),
    ("COc1nc(N2CCN(C(=O)c3cc(Cc4n[nH]c(=O)c5ccc(OC6CCC6)cc45)ccc3F)CC2)ccc1C#N", "> 5 µM"),
    ("N#Cc1cnc(N2CCN(C(=O)c3cc(Cc4n[nH]c(=O)c5ccc(OC6CCC6)cc45)ccc3F)CC2)c(C(F)(F)F)c1", "1 to 5 µM"),
    ("CC#Cc1ccc2c(=O)[nH]nc(Cc3ccc(F)c(C(=O)N4CCN(c5ccc(C#N)cn5)CC4)c3)c2c1OC", "0.1 to 1 µM"),
    ("Cc1cc(N2CCN(C(=O)c3cc(Cc4n[nH]c(=O)c5ccc(OC6CCC6)cc45)ccc3F)CC2)ncc1C#N", "0.1 to 1 µM"),
]

Check the records and state GI50 for `N#Cc1ccc(N2CCN(C(=O)c3ccnc(Cc4n[nH]c(=O)c5ccc(OC6CCC6)cc45)c3)CC2)nc1`
> 5 µM

Check the records and state GI50 for `N#Cc1ccc(N2CCN(C(=O)c3cc(Cc4n[nH]c(=O)c5ccc(OC6CCC6)cc45)ccc3F)CC2)nc1C(F)(F)F`
> 5 µM

Check the records and state GI50 for `O=C(c1cc(Cc2n[nH]c(=O)c3ccc(OC4CCC4)cc23)ccc1F)N1CCN(c2ncc(C(F)F)cn2)CC1`
1 to 5 µM

Check the records and state GI50 for `O=C(c1cc(Cc2n[nH]c(=O)c3ccc(OC4CCC4)cc23)ccc1F)N1CCN(c2ccc(C(F)(F)F)cn2)CC1`
1 to 5 µM

---

Target: His-GST-PARP7 (Homo sapiens (Human), UniProt Q7Z3E1)
Assay: PARP7 biochemical assay
Details: read-out: PARP7 IC50
pIC50: −log10 of the molar value.
readout.name: pIC50

Reference set (3 entries):
# compound, pIC50
measured = [
    ("CN(c1nccc(C(F)(F)F)n1)C1CN(C(=O)c2cc(Cc3n[nH]c(=O)c4ccc(OC5CCC5)cc34)ccc2F)C1", "5.70 to 6.30"),
    ("O=C(C1CC1)N1CCN(c2noc3cc(Cc4n[nH]c(=O)c5ccc(OC6CCC6)cc45)ccc23)CC1", "< 5.70"),
    ("CC#Cc1ccc2c(=O)[nH]nc(Cc3ccc(F)c(C(=O)NCCN(CC)c4ccc(C#N)cn4)c3)c2c1", "> 7.30"),
]

Check the records and state pIC50 for O=C(c1cc(Cc2n[nH]c(=O)c3ccc(OC4CCC4)cc23)ccc1F)N1CC2CN(C(=O)C3CC3)CC2C1 (stereo not drawn)
5.70 to 6.30

Check the records and state pIC50 for `N#Cc1ccc(N2CCN(C(=O)c3cc(Cc4n[nH]c(=O)c5ccc(S(=O)(=O)C6CC(F)(F)C6)cc45)ccc3F)CC2)nc1`
5.70 to 6.30

Check the records and state pIC50 for `N#Cc1ccc(N2CC3(CN(C(=O)c4cc(Cc5n[nH]c(=O)c6ccc(OC7CCC7)cc56)ccc4F)C3)C2)nc1`
5.70 to 6.30

Check the records and state pIC50 for `CN(C(=O)CCC(F)(F)F)C1CN(C(=O)c2cc(Cc3n[nH]c(=O)c4ccc(OC5CCC5)cc34)ccc2F)C1`
6.30 to 7.00

---

Molecular target: PARP2 (Homo sapiens (Human))
Sequence (Q9UGN5 whole entry): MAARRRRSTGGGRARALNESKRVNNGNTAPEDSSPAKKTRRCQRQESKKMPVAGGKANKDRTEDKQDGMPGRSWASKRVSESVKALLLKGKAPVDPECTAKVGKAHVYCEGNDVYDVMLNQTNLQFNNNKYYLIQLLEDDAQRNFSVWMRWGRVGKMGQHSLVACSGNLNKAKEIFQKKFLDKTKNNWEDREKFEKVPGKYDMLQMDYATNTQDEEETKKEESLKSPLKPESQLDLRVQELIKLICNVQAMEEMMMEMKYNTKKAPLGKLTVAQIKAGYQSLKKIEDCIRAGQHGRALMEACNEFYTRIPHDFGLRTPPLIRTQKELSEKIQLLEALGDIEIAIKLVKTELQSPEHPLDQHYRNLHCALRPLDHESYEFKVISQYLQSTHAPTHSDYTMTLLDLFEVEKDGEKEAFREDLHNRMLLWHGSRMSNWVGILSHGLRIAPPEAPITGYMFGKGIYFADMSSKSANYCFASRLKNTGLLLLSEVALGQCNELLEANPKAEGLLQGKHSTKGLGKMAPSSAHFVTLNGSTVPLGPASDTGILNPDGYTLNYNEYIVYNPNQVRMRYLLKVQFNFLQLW
Test: PARP2 biochemical assay
pIC50: −log10 of the molar value.
readout.name: pIC50

Reference set (3 entries):
# chem.smiles, experimental.result
records = [
    ("N#Cc1ccc(N2CCN(C(=O)c3cc(Cc4n[nH]c(=O)c5ccc(OC6CCC6)cc45)ccc3F)CC2)nc1", "5.70 to 6.30"),
    ("N#Cc1ccc(N2CCN(C(=O)c3cc(Cc4n[nH]c(=O)c5ccc(/C=C/C(F)(F)F)cc45)ccc3F)CC2)nc1", "7.00 to 7.30"),
    ("N#Cc1ccc(N2CCN(C(=O)c3cc(Cc4n[nH]c(=O)c5ccc(OC6CC6)cc45)ccc3F)CC2)nc1", "6.30 to 7.00"),
]

// next item, pIC50 requested
Tell me its pIC50 on PARP2 (Homo sapiens (Human)): `CC#Cc1ccc2c(=O)[nH]nc(Cc3ccc(F)c(C(=O)N4C5CCC4CN(c4ccc(C#N)cn4)C5)c3)c2c1`
5.70 to 6.30
